# Test system: NCI-H226 lung
# Experimental Details: NCI-60 one-dose screen, 48 h
# Study Conditions: 10 µM unless noted
Compounds without any hit were thinned out: in the full panel of roughly 83,000, 20% have a hit. Activity calls are given as the source filed them. The calls were made as follows: active = growth percent below 10; inactive = the rest.
Give one outcome, nothing more. List: active, inactive

Query: Recorded test call requested for COc1cc(C2CC(c3ccc(Nc4ccnc5cc(Cl)ccc45)cc3)=NN2c2ccccc2)cc(OC)c1OC (centres undefined)
Response: inactive

Query: Also check CC[C@H](Nc1nc(N)nc(C2CC2)c1C#N)c1nc2cccc(NCc3ccc(C(=O)NO)cc3)c2c(=O)n1-c1ccccc1
Response: active

Query: Also check CCCc1n(Cc2ccc3ccccc3n2)cc[n+]1Cc1ccc2ccccc2n1
Response: inactive

Query: Also check NNC(=O)Cc1ccccc1
Response: inactive

Query: Also check Fc1cc(-c2nnc3sc(-c4ccc(Cl)cc4)nn23)c(Cl)cc1Cl
Response: inactive

Query: Also check Cc1cc(C)c2c(n1)sc1c(Nc3ccc(O)cc3)ncnc12
Response: inactive

Query: Also check CC1C2CCC(C2)C1COCCOCCO (centres undefined)
Response: inactive

Query: Also check CC(=O)c1cccc(Nc2ncnc3ccc(NC(=O)c4ccco4)cc23)c1
Response: inactive

Query: Also check COc1ccc(-c2nsc3c2NC(=O)CC3c2ccc3c(c2)OCO3)cc1 (centres undefined)
Response: inactive

Query: Also check CCOc1cccc(/C=N/NC(=O)Cc2ccc(Nc3ccnc(C(F)(F)F)c3)cc2)c1O
Response: active

Query: Also check Oc1ccc(CCCCCCc2ccc(O)cc2)cc1
Response: inactive

Query: Also check c1ccc(C(CC2=NCCCN2)c2ccccc2)cc1
Response: inactive

Query: Also check O=S(=O)(NCC[C@@H]1C[C@H]1c1ccc2ccccc2c1)c1ccc(C(F)(F)F)cc1
Response: inactive

Query: Also check COc1ccc(Nc2ncccc2C(=O)NCc2cn(Cc3cc(OC)cc(OC)c3)nn2)cc1
Response: inactive

Values were extracted from PubChem BioAssay (NCI).
